Here, each record is paired with measured dCas9 with SSAP activity (normalized) data.
- Tested on: gene editing with dCas9
- method-summary: Screen of 322 new SSAP proteins, gene editing activity with dCas9 (Table 5)
- Type: cell-based
- condition-summary: normalized
value-kind: dCas9 with SSAP activity (normalized)

molecule | measured-value
SSAP_267: SEQ ID NO: 436; Clostridium combesii (protein, listed as Clostridium combesii) ANTKAIVLQETANNLNTLLKAKVKALPKGFNETRFLQNCMTVLQDTRNIEKCNSVSVARTMLKGAFLGLDFFSKECYAIPYNDYKTGKCHLEFQTDYKGERKLMKQYSVRPIKDIYAKVVREGDKFEEIIEKGIPTINFRPKPFSNEKIIGVFAVVLFEDGGLLYETMSVEDVEKIKVGFAKRDKEGNYSKAWTATPEEMYKKTVIRRLRKSVELEFDSVEQQKTYEEASEFDVKRDEEVKEEASPFENVDFEEAEEGNTIEAKQE | −0.553
SSAP_214: SEQ ID NO: 383; Clostridium tunisiense (protein, Clostridium tunisiense) TTKANVTSVKNALKEQIQVQQVAAQTDTSFQGVLTKQLQHQFKAIQSLVPKHVTPERLCRIGINAASRNPQLMNCTPETIVGAIVNCATLGLEPNLLGHAYIVPFYNNKTGKMEAQFQVGYKGALDLIRRTGAVSTLSAHEVYGPRSIFWTQYFY | −1.120
